The reported measurements were obtained from patent US20240158446A1.

Assignment: determine reported pKd for the given compounds.
target: GDP-bound KRAS wild-type protein (Homo sapiens, UniProt P01116); assay: Binding to KRAS by surface plasmon resonance (SPR), Single Cycle Kinetics; conditions: SPR, Single Cycle Kinetics, GDP-bound KRAS wild-type protein; read-out: KRAS KD
Sequence (P01116 whole entry): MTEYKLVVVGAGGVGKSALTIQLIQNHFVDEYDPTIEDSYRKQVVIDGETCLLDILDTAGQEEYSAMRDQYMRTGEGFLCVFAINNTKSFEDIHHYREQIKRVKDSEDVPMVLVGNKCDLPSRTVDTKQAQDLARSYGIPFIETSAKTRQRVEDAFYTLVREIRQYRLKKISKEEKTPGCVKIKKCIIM
Give bare numbers, as −log10 of the molar value.

Guide cases for pKd, answers given:
compound_structure	observable	measurement
CC[C@H](C)[C@@H]1NC(=O)[C@H](CC)N(C)C(=O)C[C@@H](C(=O)N(C)C)N(C)C(=O)[C@H](C2CCCC2)N(C)C(=O)C2(CCC2)NC(=O)[C@@H]2CCN2C(=O)[C@H](CCc2cc(F)c(C(F)(F)F)c(F)c2)NC(=O)CN(C)C(=O)[C@H](Cc2ccc(C(F)(F)F)cc2)N2CC/C=C\C[C@@H](C2=O)N(C)C(=O)CN(C)C1=O	pKd	9.37
CCO[C@@H]1C[C@H]2C(=O)NC3(CC(C)(C)C3)C(=O)N(C)[C@@H](C3CCCC3)C(=O)N(C)[C@H](C(=O)N(C)C)CC(=O)N(C)[C@@H](CC(F)(F)F)C(=O)N[C@@H]([C@@H](C)CC)C(=O)N(C)CC(=O)N(C)[C@H]3C/C=C\CCN(C3=O)[C@@H](Cc3ccc(C(F)(F)F)cc3)C(=O)N(C)CC(=O)N[C@@H](CCc3ccc(C(F)(F)F)c(OC)c3)C(=O)N2C1	pKd	10.15

Data request, read-out pKd, for CCCOC[C@H]1C(=O)N[C@@H]([C@@H](C)CC)C(=O)N(C2CC2)CC(=O)N(C)[C@H]2C/C=C\CCN(C2=O)[C@@H](CC2CCC(F)(F)CC2)C(=O)N(C)CC(=O)N[C@@H](CCc2ccc(C(F)(F)F)c(OC)c2)C(=O)N2C[C@@H](C)C[C@H]2C(=O)N(C)C2(CCC2)C(=O)N(C)[C@@H](C2CCCC2)C(=O)N(C)[C@H](C(=O)N(C)C)CC(=O)N1C
9.12
